Target Under Test: T1, cynomolgus NKp46 (cynomolgus monkey, UniProt Q95JB9 22-306)
T1 construct: also called cyno NKp46; cynomolgus monkey NKp46
T1 sequence (Q95JB9 22-306 limits assumed): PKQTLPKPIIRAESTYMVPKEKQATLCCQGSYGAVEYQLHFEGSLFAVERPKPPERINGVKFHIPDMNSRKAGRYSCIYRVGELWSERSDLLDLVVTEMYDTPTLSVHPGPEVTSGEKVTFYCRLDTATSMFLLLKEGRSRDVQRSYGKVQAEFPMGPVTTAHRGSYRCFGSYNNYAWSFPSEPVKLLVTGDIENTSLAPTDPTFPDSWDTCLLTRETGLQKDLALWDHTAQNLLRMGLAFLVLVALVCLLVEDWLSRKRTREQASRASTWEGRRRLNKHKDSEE
Test: flow cytometry, HEK293F cells transfected with cyno NKp46
Recorded Endpoint: Kd (nM)
Your answer is read as nM, so omit the unit and give the number.

Record NKp46-hz5D7v1-Fc* (Fc fusion, VHH-Fc fusion with an IgG1 Fc lacking a hinge (Fc*)) EVQLVESGGGEVQPGGSLRLSCAASGRTFASAAMGWFRQAPGKGREFVAAISRSDDTYYAESVKGRFTISRDNAKNTLYLQMSSLRAEDTAVYYCAAVVPTYGNNIYVHSAAYNYWGQGTLVTVKPGGGGPSVFLFPPKPKDTLMISRTPEVTCVVVDVSHEDPEVKFNWYVDGVEVHNAKTKPREEQYNSTYRVVSVLTVLHQDWLNGKEYKCKVSNKALPAPIEKTISKAKGQPREPQVYTLPPSRDELTKNQVSLTCLVKGFYPSDIAVEWESNGQPENNYKTTPPVLDSDGSFFLYSKLTVDKSRWQQGNVFSCSVMHEALHNHYTQKSLSLSPG , field Kd: 0.691

Recorded result, NKp46-hz5D7v8-Fc* (Fc fusion, VHH-Fc fusion with an IgG1 Fc lacking a hinge (Fc*); also called NKp46-bz5D7v8-Fc*) EVQLVESGGGEVQPGGSLRLSCAASGRTFASAAMGWFRQAPGKEREFVAAISRSVGDTYYADSVKGRFTISRDNAKNTVYLQMSSLRAEDTAVYYCAAVVPTYGNNIYVHSAAYNYWGQGTLVTVKPGGGGPSVFLFPPKPKDTLMISRTPEVTCVVVDVSHEDPEVKFNWYVDGVEVHNAKTKPREEQYNSTYRVVSVLTVLHQDWLNGKEYKCKVSNKALPAPIEKTISKAKGQPREPQVYTLPPSRDELTKNQVSLTCLVKGFYPSDIAVEWESNGQPENNYKTTPPVLDSDGSFFLYSKLTVDKSRWQQGNVFSCSVMHEALHNHYTQKSLSLSPG , Kd: 0.526

In plain terms, NKp46-hz5D7v9-Fc* (Fc fusion, VHH-Fc fusion with an IgG1 Fc lacking a hinge (Fc*)) EVQLVESGGGEVQPGGSLRLSCAASGRTFASAAMGWFRQAPGKEREFVAAISRSVDDTYYADSVKGRFTISRDNAKNTVYLQMSSLRAEDTAVYYCAAVVPTYGNNIYVHSAAYNYWGQGTLVTVKPGGGGPSVFLFPPKPKDTLMISRTPEVTCVVVDVSHEDPEVKFNWYVDGVEVHNAKTKPREEQYNSTYRVVSVLTVLHQDWLNGKEYKCKVSNKALPAPIEKTISKAKGQPREPQVYTLPPSRDELTKNQVSLTCLVKGFYPSDIAVEWESNGQPENNYKTTPPVLDSDGSFFLYSKLTVDKSRWQQGNVFSCSVMHEALHNHYTQKSLSLSPG has a documented Kd of 0.655
